Molecular target: human JAK1 catalytic kinase (JH1) domain (Homo sapiens (Human))
Sequence (P23458 875-1153): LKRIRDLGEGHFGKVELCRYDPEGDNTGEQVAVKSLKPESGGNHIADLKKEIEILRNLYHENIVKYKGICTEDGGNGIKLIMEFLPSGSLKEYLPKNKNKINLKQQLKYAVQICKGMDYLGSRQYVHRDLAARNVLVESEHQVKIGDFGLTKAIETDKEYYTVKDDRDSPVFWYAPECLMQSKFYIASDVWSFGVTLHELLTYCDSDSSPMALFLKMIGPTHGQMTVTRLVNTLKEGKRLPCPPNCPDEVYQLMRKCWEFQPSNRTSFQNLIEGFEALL
Assay: ADP-Glo Kinase Assay, recombinant JAK1 catalytic kinase (JH1) domain
Assay type: biochemical
Conditions: recombinant JH1 domain 4 nM, 35 μM ATP, JAK3-342 peptide, mean, read-out: JAK1 biochem IC50 (nM) Mean
measurement kind: log10(IC50) (log10 of the value in nM)
Remember, log10 of IC50, in nM.

compound	numeric readout
O=C([C@@H]1C[C@H]1F)N1C2CCC1CN(c1ccnn3cc(-c4ccc(OC(F)F)nc4)cc13)C2	2.02
Cn1cc(-c2cc3c(N4CC5CCC(C4)N5C(=O)C4COC4)ncnn3c2)cn1	3.73
N#C[C@@H]1C[C@H]1C(=O)N1C2CCC1CN(c1ncnn3cc(-c4cnn(C(F)F)c4)cc13)C2 (single isomer, unassigned)	2.94

Return reported log10(IC50); argument: `COc1cc(-c2cc3c(N4CC5CCC(C4)N5C(=O)[C@@H]4C[C@H]4F)ccnn3c2)cnn1`
2.18

Input `N#CCC(=O)N1C2CCC1CN(c1ncnn3cc(-c4cnn(C(F)F)c4)cc13)C2`
2.60
